% Phosphatase Activity (compared to DMSO) PRL-2 values for the compounds below.
Biological target: recombinant PRL-2 (Homo sapiens, UniProt Q12974)
Construct: 6xHis (N, cleaved yes); made in house; host or cells: E. coli One Shot BL21 Star
Sequence (Q12974 whole entry): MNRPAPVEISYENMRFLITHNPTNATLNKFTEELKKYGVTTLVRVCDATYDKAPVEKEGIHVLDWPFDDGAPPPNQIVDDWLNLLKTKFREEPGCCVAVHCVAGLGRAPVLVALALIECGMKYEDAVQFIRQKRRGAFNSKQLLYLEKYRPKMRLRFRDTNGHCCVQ
Test: In vitro phosphatase assay (DiFMUP hydrolysis), PRL-2;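 further: PRL-2 activity read as DiFMUP hydrolysis after 20 min at room temperature with drug, enzyme first pre-reduced at 4 °C for 20 min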
Format: biochemical
Conditions: FDA-approved drug screen; compared to DMSO
Where a name gives a salt, the structure may show the parent alone.
The reply should be a number in %, with the unit left off.

IN: Please give the measured % Phosphatase Activity (compared to DMSO) PRL-2 for this compound: CO[C@@]12[C@H](COC(N)=O)C3=C(C(=O)C(C)=C(N)C3=O)N1C[C@@H]1N[C@@H]12
OUT: 54

IN: Give the measured % Phosphatase Activity (compared to DMSO) PRL-2 of O=C(O)CCCc1ccc(N(CCCl)CCCl)cc1 .
OUT: 103

IN: Please look up its % Phosphatase Activity (compared to DMSO) PRL-2: C[C@H](CCC(=O)O)[C@H]1CC[C@H]2[C@@H]3CC[C@@H]4C[C@H](O)CC[C@]4(C)[C@H]3C[C@H](O)[C@]12C
OUT: 73

IN: Given the compound O=C(O)c1cc(O)c(O)c(O)c1 , what is its reported % Phosphatase Activity (compared to DMSO) PRL-2?
OUT: 76

IN: Quick check: % Phosphatase Activity (compared to DMSO) PRL-2 of COc1ccc2[n-]c([S@@+]([O-])Cc3ncc(C)c(OC)c3C)nc2c1.[Na+] [Esomeprazole Sodium] ?
OUT: 124

IN: Please give the measured % Phosphatase Activity (compared to DMSO) PRL-2 for this compound: CCCCCN(C)CCC(O)(P(=O)([O-])O)P(=O)(O)O.[Na+] [Ibandronate sodium]
OUT: 96

IN: I would be grateful if you could share the reported % Phosphatase Activity (compared to DMSO) PRL-2 for C/C(=C\c1csc(C)n1)[C@@H]1C[C@@H]2O[C@]2(C)CCC[C@H](C)[C@H](O)[C@@H](C)C(=O)C(C)(C)[C@@H](O)CC(=O)O1 [Epothilone B (EPO906, Patupilone)] .
OUT: 93

IN: Give its % Phosphatase Activity (compared to DMSO) PRL-2 value. Item: CC(C)NCC(O)COc1ccc(COCCOC(C)C)cc1 (stereo not drawn) [Bisoprolol fumarate]
OUT: 124

IN: Given the compound CN1CCC(=C2c3ccccc3CC(=O)c3sccc32)CC1 [Ketotifen Fumarate] , what is its reported % Phosphatase Activity (compared to DMSO) PRL-2?
OUT: 97
